experimental.system: Fuc(a1-2)Gal(b1-4)[Fuc(a1-3)]GlcNAc(b1-3)Gal(b1-4)[Fuc(a1-3)]GlcNAc
measurement.notes: glycan array binding signal (z-score within array); higher = stronger binding
test.settings: glycan notation: IUPAC condensed, linker removed
Many of the other results were omitted from the sample, so the strongest signals are more common in it than they were.
test.readout: glycan array binding signal (z-score)

1. Mindin (Homo sapiens), Q9BUD6 (protein) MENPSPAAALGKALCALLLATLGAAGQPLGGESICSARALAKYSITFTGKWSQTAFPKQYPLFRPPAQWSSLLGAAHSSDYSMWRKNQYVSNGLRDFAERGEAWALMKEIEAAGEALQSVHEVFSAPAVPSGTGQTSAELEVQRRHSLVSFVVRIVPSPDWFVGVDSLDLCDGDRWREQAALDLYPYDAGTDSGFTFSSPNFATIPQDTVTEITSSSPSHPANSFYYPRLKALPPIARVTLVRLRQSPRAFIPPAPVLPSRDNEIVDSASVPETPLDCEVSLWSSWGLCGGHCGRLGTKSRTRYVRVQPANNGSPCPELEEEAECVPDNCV; 0.005
2. WGA (Triticum vulgare) (protein) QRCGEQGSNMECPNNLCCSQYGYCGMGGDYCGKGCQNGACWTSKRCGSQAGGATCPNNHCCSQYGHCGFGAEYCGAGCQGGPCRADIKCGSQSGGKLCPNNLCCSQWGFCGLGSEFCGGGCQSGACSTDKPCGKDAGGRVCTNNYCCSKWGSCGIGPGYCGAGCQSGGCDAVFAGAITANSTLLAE; -0.365
